Hey, just so you know, these numbers are from patent US10501734B2.

Test: ATP-PPi exchange assay (amino acid activation)
Format: biochemical
Conditions: nsAA pAzF
Description: A 25 μl ATP-PPi exchange reaction contained the following components: 100 mM HEPES-KOH (pH 7.5), 30 mM KCl, 10 mM MgCl2, 2 mM DTT, 2 mM KF, 2 mM NaPPi, 5 mM ATP, […], 2 μCi/μl of […] (PerkinElmer) and varied concentrations of amino acids (0.25, 0.5, 1.25, 2.5, 5, 10, and 20 mM, respectively). The reactions were incubated at 37° C. […] The ratio of ATP to PPi was determined to monitor reaction progress. […] The data were analyzed by GraFit 5.0 (Erithacus Software).
Measured metric: kcat

Worked cases, answers included:
pAzFRS.1.t1: pAcFRS variant D158V, I159M, L162D, A167Y, R257G, SEQ ID NO: 11 (protein) MDEFEMIKRNTSEIISEEELREVLKKDEKSALIGFEPSGKIHLGHYLQIKKMIDLQNAGFDIIILLADLHAYLNQKGELDEIRKIGDYNKKVFEAMGLKAKYVYGSEFQLDKDYTLNVYRLALKTTLKRARRSMELIAREDENPKVAEVIYPIMQVNVMHYDGVDVYVGGMEQRKIHMLARELLPKKVVCIHNPVLTGLDGEGKMSSSKGNFIAVDDSPEEIRAKIKKAYCPAGVVEGNPIMMEIAKYFLEYPLTIKGPEKFGGDLTVNSYEELESLFKNKELHPMRLKNAVAEELIKILEPIRKRL; 4.79 ± 0.67 ×10^−2 s^−1
pAzFRS.1: pAcFRS variant D158V, I159M, L162D, A167Y, SEQ ID NO: 10 (protein) MDEFEMIKRNTSEIISEEELREVLKKDEKSALIGFEPSGKIHLGHYLQIKKMIDLQNAGFDIIILLADLHAYLNQKGELDEIRKIGDYNKKVFEAMGLKAKYVYGSEFQLDKDYTLNVYRLALKTTLKRARRSMELIAREDENPKVAEVIYPIMQVNVMHYDGVDVYVGGMEQRKIHMLARELLPKKVVCIHNPVLTGLDGEGKMSSSKGNFIAVDDSPEEIRAKIKKAYCPAGVVEGNPIMEIAKYFLEYPLTIKRPEKFGGDLTVNSYEELESLFKNKELHPMRLKNAVAEELIKILEPIRKRL; 4.61 ± 0.18 ×10^−2 s^−1

Consider the additional molecule presented here.
Entry under review: pAzFRS.2.t1: pAcFRS variant E107T, F108Y, Q109M, R257G, SEQ ID NO: 14 (protein) MDEFEMIKRNTSEIISEEELREVLKKDEKSALIGFEPSGKIHLGHYLQIKKMIDLQNAGFDIIILLADLHAYLNQKGELDEIRKIGDYNKKVFEAMGLKAKYVYGSTYMLDKDYTLNVYRLALKTTLKRARRSMELIAREDENPKVAEVIYPIMQVNGCHYRGVDVAVGGMEQRKIHMLARELLPKKVVCIHNPVLTGLDGEGKMSSSKGNFIAVDDSPEEIRAKIKKAYCPAGVVEGNPIMEIAKYFLEYPLTIKGPEKFGGDLTVNSYEELESLFKNKELHPMRLKNAVAEELIKILEPIRKRL . Reported kcat?
4.14 ± 0.23 ×10^−2 s^−1
